- System: HCT-15 colon
- ASSAY_METHOD_TEXT: NCI-60 one-dose screen, 48 h (100 = growth as untreated, 0 = no growth, -100 = all killed)
- CONDITION_INFO: 10 µM
- Procedure: Growth inhibition of the HCT-15 human tumor cell line is measured as a screen for anti-cancer activity. Cells are grown in 96 well plates and exposed to the test compound for 48 hours. Compounds are tested at a single concentration, which is 10^-5 M for most compounds. The reported endpoint is percent growth (GI% or GIPRCNT), where numbers from 0 - 100% represent growth inhibition, and numbers from -100% - 0 represent cell death. For example, a value of 40 represents 60% growth inhibition. […]
This is part of a sample that, as a whole, favours compounds with a hit. Of some 83,000 tested, about 20% had one in any assay.
MEASUREMENT_TYPE: growth (%)
Numbers only here, please. The scale is %.

Sample answers from the record:
Q: Given the molecule CC(=O)c1cc(C(=O)N2c3ccccc3Sc3ccccc32)n2ccc(C)cc12 , what is its reported growth?
Result: 10.5

Q: Given the molecule COc1cc2c3c(n(CCCNC(C)C)c(=O)c2cc1OC)-c1nc2c(cc1C3=O)OCO2 , what is its reported growth?
Result: -87.9

Q: Given the molecule N#Cc1ccc(-c2nn(-c3ccc(C(=O)O)cc3)cc2CNc2cc(Cl)cc(C(F)(F)F)c2)cc1 , what is its reported growth?
Result: 7.93

Q: Given the molecule COc1cc2c(cc1OC)/C(=C\c1sc(Nc3ccc(O)cc3)nc1O)C(C(=O)O)=N2 , what is its reported growth?
Result: 24.1

Q: Given the molecule COc1cc(Cn2c(C(F)(F)F)cc3c(Cl)ncnc32)ccn1 , what is its reported growth?
Result: -48.3

More entries:
Q: Given the molecule CN1C/C(=C\c2ccc(O)cc2O)c2[o+]c3cc(O)ccc3cc2C1 , what is its reported growth?
Result: 21.9

----------
In this section, each of the compounds is paired with its reported growth.
- Test system: HCT-15 colon
- ASSAY_METHOD_TEXT: NCI-60 one-dose screen, 48 h (100 = growth as untreated, 0 = no growth, -100 = all killed)
- CONDITION_INFO: 10 µM
This is part of a sample that, as a whole, favours compounds with a hit. Of some 83,000 tested, about 20% had one in any assay. The source made the active and inactive calls. How the source made its calls: active means growth percent below 10; inactive means the rest.

Q: Given the compound CCC(C)S(=O)(=O)c1oc(-c2ccc(C)cc2)nc1S(=O)(=O)c1ccccc1 (centres undefined) , what is its reported growth?
Result: -72.2% (active)

Q: Given the compound Cc1ccc(CNC(=O)Cc2ccc3c(c2)CN(C2CCC(=O)NC2=O)C3=O)cc1 (centres undefined) , what is its reported growth?
Result: -20.1% (active)

Q: Given the compound O=C(COc1ccc(NC(=O)Nc2ccc(Cl)cc2)cc1)N=Nc1c(O)[nH]c2ccc([N+](=O)[O-])cc12 , what is its reported growth?
Result: 94.1% (inactive)

Q: Given the compound COc1cc(/C=C/C(=O)c2ccc(F)cc2)ccc1Oc1nc(Nc2ccc(F)cc2)nc(N(C)C)n1 , what is its reported growth?
Result: 37.2% (inactive)

More entries:
Q: Given the compound CO[C@@H]1CSS[C@H]1Cn1nc(-c2ccc(Oc3ccccc3)cc2)c2c(N)ncnc21 , what is its reported growth?
Result: 66.9% (inactive)

Q: Given the compound O=C(CNc1nc(-c2ccccc2)cs1)Nc1ccc(Cl)cc1[N+](=O)[O-] , what is its reported growth?
Result: -78.5% (active)

Q: Given the compound Cc1ccn2c(C(=O)c3ccccc3)cc(-c3cc(-c4ccc(N(C)C)cc4)c(C#N)c(N)n3)c2c1 , what is its reported growth?
Result: 73.1% (inactive)

Q: Given the compound COc1ccc(CN2[C@@H](C(=O)NCc3ccc(C(=O)NO)cc3)Cc3c([nH]c4ccccc34)[C@@H]2C2CC2)cc1 , what is its reported growth?
Result: 19.5% (inactive)

Q: Given the compound CN1CCN(c2ccc(C(=O)/C=C/c3cc(C(F)(F)F)ccc3Cl)cc2)CC1 , what is its reported growth?
Result: -86.4% (active)

Q: Given the compound O=c1[nH]c2ccccc2cc1CSc1ccc(Nc2nccc(-c3ccc4ccccc4c3)n2)cc1 , what is its reported growth?
Result: 30.6% (inactive)

Data credit: PubChem BioAssay (NCI)
